FYI, the data here is from patent US20090111801A1.

For each entry below, report its IC50 value.
Biological target: hα2A receptor (Homo sapiens, UniProt P08913)
Construct: expressed in transfected cells; host or cells: CHO cells, stably transfected; membrane preparation
Sequence (P08913 whole entry): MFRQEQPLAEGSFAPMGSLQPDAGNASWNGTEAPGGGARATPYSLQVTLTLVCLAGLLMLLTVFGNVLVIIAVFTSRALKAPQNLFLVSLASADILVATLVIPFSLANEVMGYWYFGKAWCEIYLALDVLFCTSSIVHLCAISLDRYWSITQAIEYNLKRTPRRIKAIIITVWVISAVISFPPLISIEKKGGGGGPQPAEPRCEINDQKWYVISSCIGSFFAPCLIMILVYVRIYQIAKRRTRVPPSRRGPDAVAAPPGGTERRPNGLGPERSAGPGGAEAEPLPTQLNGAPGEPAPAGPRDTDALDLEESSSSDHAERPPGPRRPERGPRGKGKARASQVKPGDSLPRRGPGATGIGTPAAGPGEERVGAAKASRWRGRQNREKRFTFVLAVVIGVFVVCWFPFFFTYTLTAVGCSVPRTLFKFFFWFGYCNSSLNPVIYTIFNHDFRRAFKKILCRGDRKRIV
Test: Radioligand binding experiment for α2A-adrenoceptor ([3H]raulwolscine, CHO cell membranes)
Details: [3H]raulwolscine binding, read-out: h-α2A pIC50 (converted)
Numbers only, in nM.

Answered cases to consult:
molecule: C/C(=C\c1ccccc1)CN1CCC(Nc2nccn(Cc3ccc(CNC(=O)NCc4ccccc4)cc3)c2=O)CC1
unit.label: nM
IC50: 251
//
molecule: O=c1c(NC2CCN(C/C=C/c3ccccc3)CC2)nccn1Cc1ccc(Br)cc1
unit.label: nM
IC50: 501
//
molecule: C/C(=C\c1ccccc1)CN1CCC(Nc2nccn(CCCNCc3ccccc3)c2=O)CC1 [1-47]
unit.label: nM
IC50: 25.1
//
molecule: C/C(=C\c1ccccc1)CN1CCC(Nc2nccn(Cc3cccc(Br)c3)c2=O)CC1
unit.label: nM
IC50: 79.4

# map each molecule to its IC50
1. C/C(=C\c1ccccc1)CN1CCC(Nc2ncc[nH]c2=O)CC1
2. C/C(=C\c1ccccc1)CN1CCC(Nc2nccn(CN3C(=O)c4ccccc4C3=O)c2=O)CC1
3. C/C(=C\c1ccccc1)CN1CCC(Nc2nccn(Cc3ccc4ccccc4c3)c2=O)CC1

Completion:
1: 100; 2: 31.6; 3: 63.1

Reported IC50 for "CC(C)(C)OC(=O)NCc1ccc(Cn2ccnc(NC3CCN(C/C=C/c4ccccc4)CC3)c2=O)cc1" was 794

---

Biological target: 5HT-Transporter (Homo sapiens, UniProt P31645)
Construct: Human platelet membranes (Oceanix Biosciences Corporation, Hanover, Md., USA) were thawed; tissue Oceanix Biosciences Corporation, Hanover, Md., USA; host or cells: human platelet membranes
Sequence (P31645 whole entry): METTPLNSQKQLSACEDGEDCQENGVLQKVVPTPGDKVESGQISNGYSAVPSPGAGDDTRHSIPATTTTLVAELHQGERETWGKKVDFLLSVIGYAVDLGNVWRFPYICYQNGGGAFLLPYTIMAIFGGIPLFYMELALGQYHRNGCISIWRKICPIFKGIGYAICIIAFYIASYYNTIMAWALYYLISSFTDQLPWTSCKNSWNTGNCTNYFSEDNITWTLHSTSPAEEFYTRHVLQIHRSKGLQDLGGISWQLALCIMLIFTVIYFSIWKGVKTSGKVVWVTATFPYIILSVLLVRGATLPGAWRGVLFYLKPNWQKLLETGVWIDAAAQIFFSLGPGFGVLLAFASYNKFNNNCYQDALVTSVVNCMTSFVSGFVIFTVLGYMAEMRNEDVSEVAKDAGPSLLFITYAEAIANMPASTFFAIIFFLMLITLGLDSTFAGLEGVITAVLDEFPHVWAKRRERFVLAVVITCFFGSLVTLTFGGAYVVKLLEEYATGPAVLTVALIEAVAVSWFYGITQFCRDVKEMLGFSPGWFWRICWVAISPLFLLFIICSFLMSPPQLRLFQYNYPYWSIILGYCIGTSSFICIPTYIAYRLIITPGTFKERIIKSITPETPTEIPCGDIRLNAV
Assay: Binding experiment for the 5HT-transporter ([3H]paroxetine, human platelet membranes)
Conditions: [3H]paroxetine 0.5 nM, read-out: h-5HTT pIC50 (converted)
Experimental: The interaction of a compound of Formula (I) with α2-adrenoceptor receptors was assessed in in vitro radioligand binding experiments. […] When equilibrium of binding is reached, the receptor bound radioactivity is separated from the non-bound radioactivity, and the receptor- or transporter-bound activity is counted. The interaction of the test compounds with the receptor is assessed in competition binding experiments. […]
For each entry below, report its log10 of IC50 value.
Scale type: logarithmic (base 10). Underlying IC50 unit: nM.

Answered cases to consult:
structure.as.smiles: C/C(=C\c1ccccc1)CN1CCC(Nc2nccn(-c3cnc4ccccc4c3)c2=O)CC1
observed: 2.50
--
structure.as.smiles: C/C(=C\c1ccccc1)CN1CCC(Nc2nccn(Cc3ccccc3CS(=O)(=O)c3ccccc3)c2=O)CC1
observed: 2.60
--
structure.as.smiles: C/C(=C\c1ccccc1)CN1CCC(Nc2nccn(CCCNC(=O)CC3CCCC3)c2=O)CC1
observed: 2.90
--
structure.as.smiles: O=c1c(NC2CCN(C/C=C/c3ccccc3)CC2)nccn1CC1CCCCC1
observed: 3.10
--
structure.as.smiles: C/C(=C\c1ccccc1)CN1CCC(Nc2nccn(-c3ccsc3)c2=O)CC1
observed: 3.00

# map each compound to its log10 of IC50
1. C/C(=C\c1ccccc1)CN1CCN(c2nccn(Cc3csc(C)n3)c2=O)CC1
2. C/C(=C\c1ccccc1)CN1CCC(Nc2nccn(Cc3cnc(C)s3)c2=O)CC1
3. C/C(=C\c1ccccc1)CN1CCC(Nc2nccn(CC(=O)N(CCCN3CCCC3=O)Cc3ccc(F)cc3)c2=O)CC1

Completion:
1: 3.80; 2: 3.60; 3: 3.40

---

For each entry below, report its IC50 value.
Target: hα2C receptor (Homo sapiens, UniProt P18825)
Construct: expressed in transfected cells; host or cells: CHO cells, stably transfected; membrane preparation
Experiment: Radioligand binding experiment for α2C-adrenoceptor ([3H]raulwolscine, CHO cell membranes)
Conditions: [3H]raulwolscine binding, read-out: h-α2C pIC50 (converted)
Give bare numbers, in nM.

compound: C/C(=C\c1ccccc1)CN1CCC(Nc2nccn(Cc3cccc4ccccc34)c2=O)CC1 [5-34]
assay.target: hα2C receptor (Homo sapiens, UniProt P18825)
observed: 25.1

compound: C/C(=C\c1ccccc1)CN1CCC(Nc2nccn(-c3cccc(Nc4ccc(F)cc4)c3)c2=O)CC1 [1-43]
assay.target: hα2C receptor (Homo sapiens, UniProt P18825)
observed: 3.16

compound: C/C(=C\c1ccccc1)CN1CCC(Nc2nccn(CC(=O)N3CCC(C(F)(F)F)CC3)c2=O)CC1 [2-12]
assay.target: hα2C receptor (Homo sapiens, UniProt P18825)
observed: 3.98

Reported IC50 for CC(=O)c1ccc(S(=O)(=O)NCc2ccc(Cn3ccnc(NC4CCN(C/C(C)=C/c5ccccc5)CC4)c3=O)cc2)cc1 [1-165] was 25.1

---

Target: hα2C receptor (Homo sapiens)
Construct: expressed in transfected cells; host or cells: CHO cells, stably transfected; membrane preparation
Experiment: Radioligand binding experiment for α2C-adrenoceptor ([3H]raulwolscine, CHO cell membranes)
Conditions: [3H]raulwolscine binding, read-out: h-α2C pIC50 (converted)
metric: IC50 (nM)
Numbers only, in nM.

Answered cases to consult:
structure.as.smiles: C/C(=C\c1ccccc1)CN1CCC(Nc2nccn(CC(=O)N(Cc3ccccc3)c3ccccc3)c2=O)CC1
IC50 [nM]: 39.8
--
structure.as.smiles: C/C(=C\c1ccccc1)CN1CCC(Nc2nccn(CC(=O)Nc3ccccc3)c2=O)CC1
IC50 [nM]: 3.16
--
structure.as.smiles: CC(=O)NCCNC(=O)Cn1ccnc(NC2CCN(C/C(C)=C/c3ccccc3)CC2)c1=O
IC50 [nM]: 12.6
--
structure.as.smiles: C/C(=C\c1ccccc1)CN1CCC(Nc2nccn(CC(=O)N3CCCCC3)c2=O)CC1
IC50 [nM]: 6.31
--
structure.as.smiles: C/C(=C\c1ccccc1)CN1CCC(Nc2nccn(Cc3ccccc3)c2=O)CC1
IC50 [nM]: 50.1
--
structure.as.smiles: C/C(=C\c1ccccc1)CN1CCC(Nc2nccn(CC(=O)N(CCN3CCCC3)Cc3ccccc3)c2=O)CC1
IC50 [nM]: 0.794

# map each molecule to its IC50
1. C/C(=C\c1ccccc1)CN1CCC(Nc2nccn(-c3cccc(N(Cc4ccccc4)c4ccccc4)c3)c2=O)CC1
2. C/C(=C\c1ccccc1)CN1CCC(Nc2nccn(Cc3ccc(CNC(=O)NC4CCCCC4)cc3)c2=O)CC1

Completion:
1: 20; 2: 79.4

---

For each entry below, report its melting point value.
Structures can show the parent of a compound that is named as a salt.
Give bare numbers, in °C.

Answered cases to consult:
molecule: C/C(=C\c1ccccc1)CN1CCC(Nc2nccn(Cc3ccccc3CS(=O)(=O)c3ccccc3)c2=O)CC1 [4-3]
unit.label: °C
melting point: 112
--
molecule: C/C(=C\c1ccccc1)CN1CCC(Nc2nccn(Cc3ccc(CN)cc3)c2=O)CC1 (as salt: HCl) [1-7]
unit.label: °C
melting point: 231
--
molecule: C/C(=C\c1ccccc1)CN1CCC(Nc2nccn(CC(=O)N(C)C)c2=O)CC1 [1-16]
unit.label: °C
melting point: 128
--
molecule: C/C(=C\c1ccccc1)CN1CCC(Nc2nccn(Cc3ccc([N+](=O)[O-])cc3)c2=O)CC1 [5-25]
unit.label: °C
melting point: 123
--
molecule: C/C(=C\c1ccccc1)CN1CCC(Nc2nccn(CCN3CCCCC3)c2=O)CC1 (as salt: HCl) [2-4]
unit.label: °C
melting point: 294

# map each molecule to its melting point
1. C=CCn1ccnc(NC2CCN(C/C(C)=C/c3ccccc3)CC2)c1=O [7-11]
2. C/C(=C\c1ccccc1)CN1CCC(Nc2nccn(-c3ccc(CN(C)CCN(C)C)cc3)c2=O)CC1 [1-110]
3. CC(=O)CNCCCn1ccnc(NC2CCN(C/C(C)=C/c3ccccc3)CC2)c1=O [1-37]

Completion:
[126, 115, 160]

---

Target: hα2C receptor (Homo sapiens)
Construct: expressed in transfected cells; host or cells: CHO cells, stably transfected; membrane preparation
Sequence (P18825 1-462): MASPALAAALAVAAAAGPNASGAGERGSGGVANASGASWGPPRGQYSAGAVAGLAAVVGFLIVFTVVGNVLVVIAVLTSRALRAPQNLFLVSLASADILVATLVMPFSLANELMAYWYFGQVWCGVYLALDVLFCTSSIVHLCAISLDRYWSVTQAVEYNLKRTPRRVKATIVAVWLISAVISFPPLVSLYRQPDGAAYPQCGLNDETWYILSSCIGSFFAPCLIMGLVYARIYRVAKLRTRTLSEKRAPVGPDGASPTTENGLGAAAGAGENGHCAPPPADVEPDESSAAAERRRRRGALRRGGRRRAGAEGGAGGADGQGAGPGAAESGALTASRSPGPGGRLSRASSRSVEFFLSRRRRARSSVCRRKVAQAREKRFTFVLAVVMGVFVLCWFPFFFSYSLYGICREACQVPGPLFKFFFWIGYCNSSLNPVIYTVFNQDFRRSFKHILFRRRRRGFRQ
Test: Radioligand binding experiment for α2C-adrenoceptor ([3H]raulwolscine, CHO cell membranes)
Conditions: [3H]raulwolscine binding, read-out: h-α2C pIC50 (converted)
Checkbox rule: IC50 lower than 20 nM = 1 (yes); IC50 not lower than 20 nM = 0 (no).

These solved cases illustrate the format of a correct answer.
structure.as.smiles: C/C(=C\c1ccccc1)CN1CCC(Nc2nccn(CC3CCCCC3)c2=O)CC1
assigned.class: 0 (no)
--
structure.as.smiles: C/C(=C\c1ccccc1)CN1CCC(Nc2nccn(CC(=O)NC(C)(C)Cc3ccccc3)c2=O)CC1
assigned.class: 1 (yes)
--
structure.as.smiles: C/C(=C\c1ccccc1)CN1CCC(Nc2nccn(Cc3cnc(C)s3)c2=O)CC1
assigned.class: 0 (no)

We now examine a further compound.
Prompt: Hi there! Is IC50 for "C/C(=C\c1ccccc1)CN1CCC(Nc2nccn(-c3ccc(C(=O)N4CCOCC4)cc3)c2=O)CC1" below 20 nM, do you know?
Completion: 1 (yes)
